- assay target: FGFR1 (UniProt P11362)
- Sequence (P11362 whole entry, looked up): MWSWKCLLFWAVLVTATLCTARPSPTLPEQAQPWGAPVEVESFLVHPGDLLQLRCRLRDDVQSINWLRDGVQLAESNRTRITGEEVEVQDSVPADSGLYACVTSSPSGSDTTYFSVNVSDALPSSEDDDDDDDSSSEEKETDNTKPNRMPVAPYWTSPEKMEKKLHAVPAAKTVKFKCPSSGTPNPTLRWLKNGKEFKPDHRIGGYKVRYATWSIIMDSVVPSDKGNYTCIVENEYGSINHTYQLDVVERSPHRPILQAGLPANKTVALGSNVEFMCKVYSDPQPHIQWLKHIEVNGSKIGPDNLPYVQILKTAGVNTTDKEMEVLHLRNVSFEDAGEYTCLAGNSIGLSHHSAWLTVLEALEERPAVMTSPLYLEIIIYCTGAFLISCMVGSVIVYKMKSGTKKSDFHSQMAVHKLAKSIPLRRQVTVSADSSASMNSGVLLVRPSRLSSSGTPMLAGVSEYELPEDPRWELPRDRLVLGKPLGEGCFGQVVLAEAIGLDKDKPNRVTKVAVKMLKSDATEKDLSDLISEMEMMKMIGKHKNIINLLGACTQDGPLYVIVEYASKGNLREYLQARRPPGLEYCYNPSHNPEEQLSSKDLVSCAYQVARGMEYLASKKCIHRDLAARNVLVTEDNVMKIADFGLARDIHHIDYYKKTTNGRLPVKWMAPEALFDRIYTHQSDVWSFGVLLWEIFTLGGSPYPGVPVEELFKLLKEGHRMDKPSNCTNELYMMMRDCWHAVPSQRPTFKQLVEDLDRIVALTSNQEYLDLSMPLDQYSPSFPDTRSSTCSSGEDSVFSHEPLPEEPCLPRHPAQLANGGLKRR
- assay details: phosphorylation enrichment, bacterial display (enrichment ratio); higher = better substrate or ligand; peptides without Tyr show the background;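 further: 11-residue human phosphosite peptides and single-mutation variants displayed on the E. coli surface, counted by deep sequencing, each peptide's frequency after selection divided by its frequency in the unselected input library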;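 further: frequency after pTyr selection over input frequency; kinase dosed for 20-30% of maximal phosphorylation in three min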
test readout: phosphorylation enrichment

// below: answered sequences
Input: Please look at this sequence and report its phosphorylation enrichment: EREFKYGAHNF [OAT_Y50_YF]
Output: 0.368

Input: Entry HDKEFYSVHNK [MET_Y1235_Y1230H_YF] needs its phosphorylation enrichment filled in; supply it.
Output: 0.804

Input: Identify phosphorylation enrichment associated with the sequence SENAFYLSPDI [COL6A3_Y2827]
Output: 0.762

---
Input: Identify phosphorylation enrichment associated with the sequence IFHENYNAGTY [CFI_Y421]
Output: 0.557

Input: For the sequence SRASFYRKGGC [ALK_Y1283_Y1278S_YF] , give its measured phosphorylation enrichment value.
Output: 0.381

Input: Identify phosphorylation enrichment associated with the sequence FRGFSYDDIPD [TMEM230_Y112_YF]
Output: 0.474

Input: Please give the documented phosphorylation enrichment of MPAVTYTPAMR [MEGF10_Y895]
Output: 0.28

Input: Supply measured phosphorylation enrichment of IHSGIYYKPES [L2HGDH_Y102] in your reply.
Output: 1.53

Input: In one line, give reported phosphorylation enrichment of the entry GRERPYGGGGG [FUS_Y526_R521G] .
Output: 1.02

Input: Fill in phosphorylation enrichment for record DRLAVYIDRVS [LMNA_Y45_R50S]
Output: 0.463

Input: Read off the recorded phosphorylation enrichment for DAGTDYVGISC [FREM2_Y2061_R2066C]
Output: 1.05

Input: Indicate its recorded phosphorylation enrichment; the sequence in question is LARDMDDKEYY [MET_Y1230_Y1230D]
Output: 0.867

Input: Assign phosphorylation enrichment to the following record: NVGGKYSYLKV [GRM3_Y478]
Output: 0.449

Input: Report phosphorylation enrichment, nothing else, for this sequence: GHNDVYILEHV [GRIN2A_Y1423_S1425L]
Output: 0.43

====

- System: Fer (mouse)
- assay details: phosphorylation enrichment, bacterial display (enrichment ratio); higher = better substrate or ligand; peptides without Tyr show the background
Label criterion met when phosphorylation enrichment is at or above 0.6; otherwise label criterion not met.

Illustrative cases are given below, each with its answer.
Input: Hello, I need to know if RAILDYIASKY [GSTA3_Y74_N73D] has measured phosphorylation enrichment not below 0.6. Thanks!
Output: criterion met

Input: API: above_or_equal(metric=phosphorylation enrichment, cutoff=0.6) for item RRFLFYFSFLL [PTEN_Y177_V175L_YF]
Output: criterion not met

Input: Hi, just wondering whether PTEAQYRFIFM [PTPN11_Y511_Q506P_YF] shows phosphorylation enrichment of 0.6 or higher.
Output: criterion met

Input: Dear colleague, could you confirm whether IHSGIYYKPES [L2HGDH_Y102] has phosphorylation enrichment at or above 0.6?
Output: criterion met

Input: Determine whether measured phosphorylation enrichment meets or exceeds 0.6 for LVVFEYMRHGD [NTRK1_Y591_M587V]
Output: criterion not met

Input: Entry SGIFQYNIAKF [FOXL2_Y83_I84N_YF] : is its phosphorylation enrichment no less than 0.6?
Output: criterion not met

Input: Quick check: does RESSGYLRLAF [MEP1A_Y481] have phosphorylation enrichment greater than or equal to 0.6?
Output: criterion met

Input: Say whether RAYRHYLLKQK [SCN2A_Y1919_R1918H] shows phosphorylation enrichment of 0.6 or more.
Output: criterion not met

Input: Threshold query (phosphorylation enrichment >= 0.6) on EPDSLYGCGRG [ATM_Y2019_G2023R]
Output: criterion not met

Input: Threshold query (phosphorylation enrichment >= 0.6) on CQASLYPSNHD [LRIG1_Y996_G993A]
Output: criterion not met

Others:
Input: State whether the measured phosphorylation enrichment reaches 0.6, counting equality as reaching it, for AKIDGYITSYR
Output: criterion not met

Input: Dear colleague, could you confirm whether MFNPMYALFRT [HUWE1_Y4078] has phosphorylation enrichment at or above 0.6?
Output: criterion met

====

- Test system: c-Abl (mouse)
- assay details: phosphorylation enrichment, bacterial display (enrichment ratio); higher = better substrate or ligand; peptides without Tyr show the background
Each entry below lists one item and its recorded phosphorylation enrichment value.
Please reply with the value in numeric form only.

The examples below pair each entry with its known result.
Input: Please report phosphorylation enrichment for the following sequence: EVESPYEVHDF [GIGYF2_Y1168_YF]
Output: 0.825

Input: Check the records and state phosphorylation enrichment for KRLDGYVLEGR [IGSF9_Y656]
Output: 0.496

Input: Retrieve phosphorylation enrichment measured for LFMGDYVDRGF [PPP2CA_Y86_YF] and print it.
Output: 0.616

Input: Answer with the recorded phosphorylation enrichment for the sequence listed here: QSHKVYFQHLL [POR_Y604_V605F]
Output: 0.991

Input: # return recorded phosphorylation enrichment for input RGDIFYTSKLW [AKR1C3_Y81_E77G]
Output: 0.889

Input: Assign phosphorylation enrichment to the following record: YQCKHYACIRQ [TIMP3_Y182_S179C]
Output: 0.514

Input: Give the reported phosphorylation enrichment for this sequence. EKQLLYSENKT [FRK_Y132]
Output: 0.563

Input: Name the recorded phosphorylation enrichment of the item NLDRFYQQVTK [SEC16A_Y1041] in your answer.
Output: 0.587

***
Input: Answer with the recorded phosphorylation enrichment of TEAGDYKLCFD [TMED1_Y103] only.
Output: 0.888

Input: Determine its reported phosphorylation enrichment: HKNNNYEPNLF [BRCA2_Y57]
Output: 0.563

Input: Complete the entry with phosphorylation enrichment for QMIETYFDFRL [NSMF_Y506]
Output: 1.62

Input: Find the measured phosphorylation enrichment of ANVIRYFPTQA [SLC25A4_Y81] and report it.
Output: 0.541

Input: Query phosphorylation enrichment for HDKEFYSVHNK [MET_Y1235_Y1230H_YF]
Output: 0.309

Input: Read off the recorded phosphorylation enrichment for PESTLYRKFTT [NTRK1_Y701_I699T]
Output: 1.12

====

- assay target: EPHB2 (UniProt P29323)
- Sequence (P29323 whole entry, looked up): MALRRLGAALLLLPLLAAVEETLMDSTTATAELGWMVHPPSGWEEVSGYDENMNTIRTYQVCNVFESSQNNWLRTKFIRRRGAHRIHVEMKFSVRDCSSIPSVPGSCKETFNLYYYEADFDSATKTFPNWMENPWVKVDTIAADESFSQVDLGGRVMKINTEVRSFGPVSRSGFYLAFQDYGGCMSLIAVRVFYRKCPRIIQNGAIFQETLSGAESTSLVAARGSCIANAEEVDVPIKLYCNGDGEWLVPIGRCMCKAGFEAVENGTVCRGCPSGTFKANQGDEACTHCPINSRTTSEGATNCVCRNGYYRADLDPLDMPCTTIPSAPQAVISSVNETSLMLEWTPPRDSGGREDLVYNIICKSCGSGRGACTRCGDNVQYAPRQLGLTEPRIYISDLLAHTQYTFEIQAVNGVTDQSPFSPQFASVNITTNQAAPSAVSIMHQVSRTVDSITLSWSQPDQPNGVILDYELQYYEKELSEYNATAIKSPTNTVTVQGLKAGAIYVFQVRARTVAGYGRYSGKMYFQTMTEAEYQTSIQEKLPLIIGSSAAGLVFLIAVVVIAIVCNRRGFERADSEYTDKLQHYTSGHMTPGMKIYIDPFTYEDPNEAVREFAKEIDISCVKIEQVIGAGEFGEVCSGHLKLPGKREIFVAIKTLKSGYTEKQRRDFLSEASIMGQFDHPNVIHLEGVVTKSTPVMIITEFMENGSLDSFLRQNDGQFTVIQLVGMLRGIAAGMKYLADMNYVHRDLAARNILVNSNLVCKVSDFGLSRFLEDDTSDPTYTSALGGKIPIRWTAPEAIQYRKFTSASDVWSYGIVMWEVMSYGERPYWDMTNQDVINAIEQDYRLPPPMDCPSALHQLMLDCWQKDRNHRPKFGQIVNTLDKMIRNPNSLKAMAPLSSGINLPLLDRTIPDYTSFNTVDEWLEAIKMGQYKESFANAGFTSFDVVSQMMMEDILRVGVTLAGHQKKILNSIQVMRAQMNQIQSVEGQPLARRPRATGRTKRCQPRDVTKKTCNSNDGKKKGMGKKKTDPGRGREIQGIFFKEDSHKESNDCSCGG
- assay details: phosphorylation enrichment, bacterial display (enrichment ratio); higher = better substrate or ligand; peptides without Tyr show the background
test readout: phosphorylation enrichment
Number only, please.

Take a look at these entries with their results.
Input: Entry RPQDGYRIVQH [PTPRT_Y1329] needs its phosphorylation enrichment filled in; supply it.
Output: 0.565

Input: Answer with the recorded phosphorylation enrichment for the sequence listed here: GQETSYIEDNC [PAH_Y24]
Output: 0.758

Input: Look up and report measured phosphorylation enrichment for this entry: HGDSAYHSQRH [ERBB3_Y1132_R1127H]
Output: 0.479

Input: Item GEEIKYTLWLS [OTC_Y55_M56T] : provide phosphorylation enrichment
Output: 0.605

Others:
Input: Supply phosphorylation enrichment value. Item: RASQEYHIVKK [PDZD2_Y557_S552R]
Output: 0.471

Input: Output phosphorylation enrichment of CLLHCYFSQIR [MCM3AP_Y873]
Output: 0.428

====

- assay target: FGFR3 (UniProt P22607)
- Sequence (P22607 whole entry, looked up): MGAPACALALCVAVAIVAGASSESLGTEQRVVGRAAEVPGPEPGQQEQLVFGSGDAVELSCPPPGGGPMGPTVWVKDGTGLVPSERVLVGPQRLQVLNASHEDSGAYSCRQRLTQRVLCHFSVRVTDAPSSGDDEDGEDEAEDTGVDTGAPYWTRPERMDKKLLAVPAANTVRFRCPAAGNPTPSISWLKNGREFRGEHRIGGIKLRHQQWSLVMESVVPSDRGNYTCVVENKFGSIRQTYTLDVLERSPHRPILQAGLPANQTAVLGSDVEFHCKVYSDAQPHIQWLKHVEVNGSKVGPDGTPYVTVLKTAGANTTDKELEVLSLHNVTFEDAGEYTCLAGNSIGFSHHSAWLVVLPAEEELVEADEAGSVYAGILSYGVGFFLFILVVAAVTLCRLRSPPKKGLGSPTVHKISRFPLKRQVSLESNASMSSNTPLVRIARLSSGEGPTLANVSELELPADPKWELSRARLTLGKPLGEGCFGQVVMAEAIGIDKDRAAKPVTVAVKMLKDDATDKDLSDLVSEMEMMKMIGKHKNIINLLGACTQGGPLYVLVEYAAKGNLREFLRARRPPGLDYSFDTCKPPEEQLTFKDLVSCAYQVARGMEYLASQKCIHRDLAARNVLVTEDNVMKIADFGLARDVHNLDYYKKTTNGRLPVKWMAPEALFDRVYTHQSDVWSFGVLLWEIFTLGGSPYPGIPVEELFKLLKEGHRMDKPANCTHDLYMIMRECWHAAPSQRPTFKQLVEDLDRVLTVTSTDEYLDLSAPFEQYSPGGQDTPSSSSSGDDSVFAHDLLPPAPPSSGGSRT
- assay details: phosphorylation enrichment, bacterial display (enrichment ratio); higher = better substrate or ligand; peptides without Tyr show the background
test readout: phosphorylation enrichment
When you answer, write just the number.

Input: Recall and state the measured phosphorylation enrichment for SFKNKYGMVAQ [APOB_Y276_YF] .
Output: 0.39

Input: Entry QSSALYEDHYL [ASS1_Y83_R86H] needs its phosphorylation enrichment filled in; supply it.
Output: 0.702

Input: Respond only with phosphorylation enrichment recorded for SHMVDYQPFRK [TEX37_Y25_YF]
Output: 0.464

Input: Using the record for MLEVSYVDRNS [F10_Y384_P383S] , state its measured phosphorylation enrichment.
Output: 0.519

Input: Annotate the sequence DVVKDCAFVHM [RBM14_Y114_Y114C] with its measured phosphorylation enrichment.
Output: 0.623

Continuing:
Input: Provide only the value of recorded phosphorylation enrichment for HGDSAYHSQRH [ERBB3_Y1132_R1127H]
Output: 0.425

Input: Supply measured phosphorylation enrichment of SHLSAYPALEG [CD5_Y465] in your reply.
Output: 0.411

Input: Return phosphorylation enrichment (reported value) for this sequence: GHGEEYPVAGA [NOTCH3_Y2221_A2223V]
Output: 0.48

Input: Give a short answer stating reported phosphorylation enrichment for QDEPTYARSSK [PEAK1_Y616_H611Q] .
Output: 0.508

Input: Answer with the recorded phosphorylation enrichment of ADCRFYTFPQM [GAMT_Y223_A224T_YF] only.
Output: 0.895

Input: Report phosphorylation enrichment, nothing else, for this sequence: EEGNPYFSGAR [MCCC2_Y520_S523G_YF]
Output: 0.686

Input: Input RRFLFYFSFLL [PTEN_Y177_V175L_YF] , output reported phosphorylation enrichment.
Output: 0.508
